# Target Under Test: SARS-HCoV spike protein (SARS-coronavirus (Tor-3 strain), UniProt P59594 14-1255)
# Experimental Details: ELISA, virus heated 100 C 10 min, coated at 32 ng/well

Binder	Readout Units	ELISA OD 405 nm, Denatured Lysate
F26G6 (antibody, V domains shown) VH: QVQLQQPGAELVKPGASVKVSCKASGYTFTNYWIHWVKQRPGQGLEWIGEINPGNGRTNYNGNFMNKATLTVDKSSNTAYMQLSSLTSEDSAVYHCARLDYWGQGTTLTVSS VL: ELVMTQSPASLSVATGKKVTIRCISSTDIDDDMNWYQQKAGKPPKLLISEGNIFSPGVPSRFSSSGNGTDFVFTVENTLSEDVADNYCLQSDNMPFTFGSGTKLGIKR	OD 405 nm	0.6
F26G18 (antibody, V domains shown) VH: LVQLEESGTVLPRPGASVKMSCKASGYTFTSYWMHWVKQRPGQGLEWIGAIYPGNSDTNYNQKFKGRATLTAVTSTSTASMELSSLTNEDSAVYYCTRDGYGSLYYYAMDFWGQGTSVTVSS VL: ELVMTQSPSSLSASLGDRVTISCRASQDISNYLNWYQQKPDGTVKLLIYYTSRLHAGVPSRFSGSGSGTDYSLTISNLEQEDIATYFCQQGYTLPYTFGGGTKLEIKR	OD 405 nm	0.501
F26G19 (antibody, V domains shown) VH: EVQLEESGTVLARPGASVKMSCKASGYTFTTYRMHWIKQRPGQGLEWIGAIYPGNSDTTYNQKFKDKAKLTAVTSTSSAYMELSSLTNEDSAVYFCTREGIPQLLRTLDYWGQGTSVTVSS VL: DILMTQSPSSLSASLGERVSLTCRASQEISGYLSWLQEKPDGTIKRLIYAASTLDSGVPKRFSGSRSGSDYSLTISSLESEDFADYYCLQYVSYPWTFGGGTKLEIKR	OD 405 nm	0.253
F26G8 (antibody, V domains shown) VH: VQLLESGAELVKPGASVKVSCKASGYTFTSYWIHWVKQRPGQGLEWIGEINPSNGRTNYNGNFESKATLTVDKSSNTAYMHLSSLTYEDSAVYHCTRLDYWGQGTTLTVSS VL: ELVMTQSPASLSVITGKKVTIRCISNTDIDDDLNWSQLKAGEPPKLLISEGNIFSPGVPSRFSSSGNGTDFVFTIENTLSEDVANNYCFQSDNMPFTFGSGTKLEIKR	OD 405 nm	0.497
